Hey, just so you know, these numbers are from patent US20200323888A1.

# target system: T1, MBP-HishNAA80 fusion protein (MBP-Naa80) (human, UniProt Q93015-2 1-308)
# T1 construct: also called hNAA80/hNAT6; Fus-2/NAT6; not shown: MBP-His tag encoded by the pETM-41 vector
# T1 sequence (looked up): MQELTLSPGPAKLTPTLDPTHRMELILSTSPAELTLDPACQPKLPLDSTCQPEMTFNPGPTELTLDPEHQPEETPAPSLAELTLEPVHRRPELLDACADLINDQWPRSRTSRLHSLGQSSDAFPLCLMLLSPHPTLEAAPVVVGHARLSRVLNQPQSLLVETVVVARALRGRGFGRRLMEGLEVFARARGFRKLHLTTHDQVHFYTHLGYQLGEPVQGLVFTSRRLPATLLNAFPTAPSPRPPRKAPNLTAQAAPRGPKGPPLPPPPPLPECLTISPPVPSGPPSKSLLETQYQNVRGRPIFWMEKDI
# assay overview: Ki from Nt-acetylation inhibitor assay, panel of human NATs
CoA = coenzyme A
outcome measure: Ki (nM)
One number for each entry, in nM.

In: May I ask what Ki has been recorded for {CoA-Ac}-DDDI-NH2 [CoA-Ac-DDDI-NH2] ?
Out: 43
